assayed-target: rat relaxin family peptide receptor 2 (RXFP2) (rat) (UniProt Q5ECL0)
Sequence (Q5ECL0 entry or part of it): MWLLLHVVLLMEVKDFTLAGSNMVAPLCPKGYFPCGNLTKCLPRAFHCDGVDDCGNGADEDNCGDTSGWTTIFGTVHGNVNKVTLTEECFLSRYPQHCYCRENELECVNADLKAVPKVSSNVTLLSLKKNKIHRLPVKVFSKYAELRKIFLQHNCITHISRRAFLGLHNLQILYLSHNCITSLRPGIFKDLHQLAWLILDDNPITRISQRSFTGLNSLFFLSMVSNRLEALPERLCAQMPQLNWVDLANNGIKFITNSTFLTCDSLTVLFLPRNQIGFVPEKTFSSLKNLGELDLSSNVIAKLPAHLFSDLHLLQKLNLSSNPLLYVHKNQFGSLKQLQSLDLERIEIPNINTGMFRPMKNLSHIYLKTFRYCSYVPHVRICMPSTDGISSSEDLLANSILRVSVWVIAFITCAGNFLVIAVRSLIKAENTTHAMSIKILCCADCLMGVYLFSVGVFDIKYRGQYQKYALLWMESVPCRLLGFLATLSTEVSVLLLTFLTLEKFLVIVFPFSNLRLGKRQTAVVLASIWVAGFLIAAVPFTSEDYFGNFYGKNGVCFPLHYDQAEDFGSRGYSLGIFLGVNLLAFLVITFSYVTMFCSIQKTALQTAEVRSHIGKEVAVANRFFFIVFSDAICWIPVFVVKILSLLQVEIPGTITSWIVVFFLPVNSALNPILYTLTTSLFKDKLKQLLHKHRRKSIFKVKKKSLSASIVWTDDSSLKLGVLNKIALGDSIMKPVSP
Item-by-item account of % Max Response, INSL3 (EC80)-stimulated cAMP in HEK293 stably expressing rat RXFP2
measured-property: % Max Response, INSL3 (EC80)-stimulated cAMP in HEK293 stably expressing rat RXFP2 (%)

# binder, u, measurement
data = [
    ("RXFP2 mAb 4G6 (antibody, V domains shown) VH: EVQLQQSGPELVKPGASVKLSCKASGYTFTSYVMHWVKQKPEQGLEWIGYKNPSNDGIKYNEKFKGKATLTSDKSSNIAYMELFSLTSEDSAVYYCARSDFGSVWAMDYWGQGTSVTVSS VL: SIVMTQTPKFLLVSAGDRVTITCKASQSVNDDIVWYQQKPGQSPKLLIYYASNRYTGVPDRFTGSGYGTDFTFTISTVQAGDLAVYFCQQDYSSPFTFGSGTKLEIK", "%", 82.5),
    ("RXFP2 mAb 4F6 (antibody, V domains shown) VH: EVQLQQSGPELVKPGASVKMSCKASGYTFTNYVLHWVKQKPGQGLEWIGYINPYNDGSKYNEKFKGRATLTSDKSSSTAYMELSSLTSEDSAVYYCARGGWLLDYFDYWGQGTTLTVSS VL: DVLMTQSPLSLPVSLGEQASISCRSSQSIVHSDGDTYLEWYLQKPGQSPNLLIYKVSNRFSGVPDRFSGSGSGTDFTLKISRVEAEDLGVYYCFQGSHVPPTFGGGTKLEIK", "%", 80.4),
    ("RXFP2 mAb 4A5 (antibody, V domains shown) VH: DVQLVESGGGLVQPGGSRKLSCAASGFTFSTFGMHWVRQAPEKGLEWVAYISSGSSTIYYADTVKGRFTISRDNPKNTLFLQMTSLRSDDTAMYYCSRSYYGSAHYFDYWGQGTTLTVSS VL: DIQMTQSPASLSVSVGETVTITCRASENIYSNLAWYQQKQGKSPQLLVYVATNLADGVPSRFSGSGSGTQYSLRINNLQSEDFGNYYCQHFWGTPPTFGGGTKLEIK", "%", 91),
    ("RXFP2 mAb 3F1 (antibody, V domains shown) VH: QVQLKESGPGLVAPSQSLSITCTVSGFSLTDYGVSWIRQPPGKGLEWLGVIWGGGSTDYNPALKSRLSISKDNSKSQVFLKMNSLQADDTAMYYCVKHEGYYAMDYWGQGTSVTVSS VL: DIQMTQSPASLSVSVGETVTITCRASENIYSNLAWYQQKQGKSPHLLVYAVTNLADGVPSRFSGSGSGTQYSLKINSLQSEDFGSYYCQHFWGTPYTFGGGTKLEIK", "%", 69.7),
    ("RXFP2 mAb 4H5 (antibody, V domains shown) VH: QVQLKQSGPGLVQPSQSLSITCTVSGFSLTNYGVHWVRQSPGKGLEWLGVIWRDGNTDYNAAFMSRLSITKDNSKSQVFFEMNSLQVDDTAIYYCCRGDGYYAMGYWGQGTSVTVSS VL: DIQMTQSPASLSVSVGETVTITCRASENIYSNLAWYQQRQGRSPQLLVYAATNLADGVPSRFSGSGSGTQYSLKINSLQSEDFGNYYCQHFWGSPRTFGGGTKLEIK", "%", 89.2),
    ("RXFP2 mAb 3G4 (antibody, V domains shown) VH: QVQLKESGPGLVAPSQSLSITCTVSGFSLTSYGVSWVRQPPGKGLEWLGVIWGDGSTNYHSALISRLSISKDNSKSQVFLKLNSLQTDDTATYYCAKSLGYYAMDYWGQGTSVTVSS VL: DIQMTQSPASLSVSVGETVTITCRASENIYSNLVWYQQKQGKSPQLLVYAATNLAEGVPSRFSGSGSGTQYSLKINSLQSEDFGSYYCQHFWGPPWTFGGGTKLEIK", "%", 83.3),
]
